Origin of measurements: a melting point compilation (Tetko et al.; mined from patent text by program, amines drawn as free bases though some values may be those of a salt)

readout.name: melting point

Worked set:
Recorded melting point for CN(Cc1ccccc1)CC1CNC(=O)c2cccc3[nH]cc1c23 (stereo not drawn) , please? 191 to 193 °C

Recorded melting point for `O=C(CCc1ccccc1)c1ccc(OCCO)cc1` , please? 41 to 43 °C

Recorded melting point for O=C(c1ccc(F)cc1)N1CCCC(c2nc(-c3cccc(F)c3)no2)C1 (stereo not drawn) , please? 86 to 89 °C

Recorded melting point for `CCC(=O)N[C@H]1CC[C@H](CCN2CCN(c3nccc4c3CCO4)CC2)CC1` , please? 192 °C

Next:
Recorded melting point for `O=S(=O)(c1ccc(S)cc1)c1ccc(S)cc1` , please? 138 to 140 °C

Recorded melting point for `CC(C)(C)[Si](C)(C)Oc1ccccc1-c1cc(-c2ccc([N+](=O)[O-])cc2)c(C#N)c(N)n1` , please? 168 to 169 °C

Recorded melting point for `N#CCCNC(=O)c1cccc(-c2cccc(OC3CCCCC3)n2)c1` , please? 131 to 132 °C

Recorded melting point for `CC(=O)Nc1nc(C=O)cs1` , please? 196 to 199 °C
